Measured values drawn from paper PMC12670405 for this set.

Protocol Details: Plasma stability assay
Format: in vitro ADME, CD-1 mouse
Measurement Parameters: CD-1 mouse plasma, 1 μM, 37 °C; read-out: plasma t1/2
Measured Parameter: half-life at 1 μM

O=C1CCC(Nc2ccc(N3CCN(C4CN(C(=O)[C@]5(Cc6cccc(Nc7nccs7)n6)CC[C@@H](Oc6cccc(Cl)c6F)CC5)C4)CC3)nc2)C(=O)N1 (stereo partly drawn) [PROTAC 20]	> 2 h
Cc1cc(Nc2ccc(F)c(CC3(C(=O)N4CC(N5CCN(c6ccc(NC7CCC(=O)NC7=O)cc6F)CC5)C4)CCN(Cc4cccc(Cl)c4F)CC3)n2)n[nH]1 (stereo not drawn) [PROTAC 29]	> 2 h

Now look at this one.
Measured half-life at 1 μM, O=C1CCC(Nc2ccc(N3CCN(C4CN(C(=O)[C@]5(Cc6cccc(Nc7nccs7)n6)CC[C@@H](Oc6cccc(Cl)c6F)CC5)C4)CC3)c(F)c2)C(=O)N1 (stereo partly drawn) [PROTAC 18] : > 2 h

---

Consider the following compounds and their measured DC50 readings.
Study System: AURKA (Homo sapiens)
Sequence (O14965 whole entry): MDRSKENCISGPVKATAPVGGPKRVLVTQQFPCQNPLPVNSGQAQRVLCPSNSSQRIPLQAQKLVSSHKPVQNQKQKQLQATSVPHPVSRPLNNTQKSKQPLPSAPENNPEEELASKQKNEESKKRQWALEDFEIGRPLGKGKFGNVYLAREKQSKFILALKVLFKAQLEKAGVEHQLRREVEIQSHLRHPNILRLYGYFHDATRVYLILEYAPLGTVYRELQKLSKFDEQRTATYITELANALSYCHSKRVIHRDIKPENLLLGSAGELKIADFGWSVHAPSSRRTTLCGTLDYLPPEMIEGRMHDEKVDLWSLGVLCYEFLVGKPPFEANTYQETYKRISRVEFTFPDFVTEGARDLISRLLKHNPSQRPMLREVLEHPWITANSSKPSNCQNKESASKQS
Protocol Details: AURKA degradation, Simple Western
Format: cell-based
Parameters: Representative Western blot showing levels of endogenous proteins MDR1, MYCN, AURKA, and CRBN in untreated cell lines; endogenous in cells; host or cells: NGP, IMR-32, SJNB-8, SK-N-BE(2)-C, SK-N-SH, SK-N-AS, SJNB-1, RPE, HEK293T
Measurement Parameters: read-out: AURKA DC50
Please give a number only; it is taken to be in nM.

O=C1CCC(N2C(=O)c3ccc(OCCOCCNC(=O)[C@]4(Cc5cccc(Nc6nccs6)n5)CC[C@@H](Oc5cccc(Cl)c5F)CC4)cc3C2=O)C(=O)N1 (stereo partly drawn) [SK3277, reference compound]	7
O=C1CCN(c2ccc(N3CCN(CC4CN(C(=O)[C@]5(Cc6cccc(Nc7nccs7)n6)CC[C@@H](Oc6cccc(Cl)c6F)CC5)C4)CC3)nc2)C(=O)N1	4
O=C1CCN(Cc2ccc(C3CCN(CC4CCN(C(=O)[C@]5(Cc6cccc(Nc7nccs7)n6)CC[C@@H](Oc6cccc(Cl)c6F)CC5)CC4)CC3)nc2)C(=O)N1	10.8

Measured DC50, O=C1CCC(N2C(=O)c3cccc(OCCOCCOCCN4CCN(C(=O)[C@]5(Cc6cccc(Nc7nccs7)n6)CC[C@@H](Oc6cccc(Cl)c6F)CC5)CC4)c3C2=O)C(=O)N1 (stereo partly drawn) : 8.7

Measured DC50, O=C1CCC(Nc2ccc(N3CCN(C(=O)CNC(=O)[C@]4(Cc5cccc(Nc6nccs6)n5)CC[C@@H](Oc5cccc(Cl)c5F)CC4)CC3)cc2)C(=O)N1 (stereo partly drawn) : 43.8

Measured DC50, "Cc1cc(Nc2ccc(F)c(CC3(C(=O)N4CCC(CN5CCN(c6ccc(N7CCC(=O)NC7=O)cn6)CC5)CC4)CCN(Cc4cccc(Cl)c4F)CC3)n2)n[nH]1" : 8.1

Measured DC50, O=C1CCC(Nc2ccc(N3CCN(CCNC(=O)[C@]4(Cc5cccc(Nc6nccs6)n5)CC[C@@H](Oc5cccc(Cl)c5F)CC4)CC3)cc2)C(=O)N1 (stereo partly drawn) : 12.5

Measured DC50, "O=C1CCN(c2ccc(C3CCN(C4CN(C(=O)[C@]5(Cc6cccc(Nc7nccs7)n6)CC[C@@H](Oc6cccc(Cl)c6F)CC5)C4)CC3)nc2)C(=O)N1" : 3

Measured DC50, O=C1CCC(Nc2ccc(N3CCN(C4CN(C(=O)[C@]5(Cc6cccc(Nc7nccs7)n6)CC[C@@H](Oc6cccc(Cl)c6F)CC5)C4)CC3)nc2)C(=O)N1 (stereo partly drawn) : 1.7
